Each item that follows carries a reported melting point.

Past entries and their recorded results:
>  <compound>
CCCn1c(COCC)nc2c(N)nc3ccc(OCC4CCCO4)cc3c21 (stereo not drawn)

>  <result>
178 to 179 °C

$$$$
>  <compound>
CCCCc1nc2c(N)nc3ccc(OCC(=O)N(CCOC)CCOC)cc3c2n1C

>  <result>
125 to 128 °C

$$$$
>  <compound>
CCCn1c(COCC)nc2c(N)nc3cc(OC4CCN(C(C)=O)CC4)ccc3c21

>  <result>
178 to 179.5 °C

$$$$
>  <compound>
CCCCc1nc2c(N)nc3ccc(OCCC4CCNCC4)cc3c2n1C

>  <result>
210 to 212 °C

$$$$
>  <compound>
CCCCc1nc2c(N)nc3ccc(OCCNC(=O)CC)cc3c2n1C

>  <result>
250 to 255 °C (dec.)

$$$$
>  <compound>
CCCn1c(COCC)nc2c(N)nc3ccc(OCC(=O)N4CCOCC4)cc3c21

>  <result>
196 to 197 °C

$$$$
>  <compound>
CCCn1c(COC)nc2c(N)nc3ccc(OCCN4CCCCC4)cc3c21

>  <result>
160 to 162 °C

$$$$
>  <compound>
CCCn1c(COC)nc2c(N)nc3ccc(OCC4CCCN(C)C4)cc3c21 (stereo not drawn)

>  <result>
194 to 196 °C

$$$$

Okay, next one:
Field request: melting point | item: CCOCc1nc2c(N)nc3cc(OCCNC(=O)OC(C)(C)C)ccc3c2n1CC1COC(C)(C)O1 (stereo not drawn) 82 to 84 °C

* * *

Each entry below carries its recorded melting point.

>  <compound>
CCOCc1nc2c(N)nc3cc(OC4CCOC4)ccc3c2n1CCCCN1CCCS1(=O)=O (centres unmarked)

>  <result>
195.5 to 197 °C

$$$$
>  <compound>
CCCc1nc2c(N)nc3cc(OCC4CCCCO4)ccc3c2n1CC(C)C (centres unmarked)

>  <result>
126 °C (dec.)

$$$$
>  <compound>
CCCn1c(COCC)nc2c(N)nc3ccc(OCCN4CCCCCC4)cc3c21

>  <result>
146 to 148 °C

$$$$

So what does the record say about melting point for CCCCc1nc2c(N)nc3ccc(OCC(=O)N4CCCCC4)cc3c2n1C ? 222.5 to 223.4 °C

What melting point value was documented for this compound, CCCCc1nc2c(N)nc3ccc(OCCC4CCN(C(=O)C(C)C)CC4)cc3c2n1C ? 189.4 to 192.6 °C

I would be grateful if you could share the reported melting point for CCc1nc2c(N)nc3cc(OCCNC(C)=O)ccc3c2n1CC1CCOCC1 . 165 to 167 °C

GET /values?readout=melting point&item= CCCc1nc2c(N)nc3cc(OCCCNS(=O)(=O)CCc4cccc5ccccc45)ccc3c2n1CC(C)C 164 to 168 °C

Any idea what its melting point is? The compound is CCOCc1nc2c(N)nc3cc(OCCCCCCNC(=O)NC(C)C)ccc3c2n1CC(C)(C)NC(=O)NC(C)C 205 to 209 °C

Name the recorded melting point for CCCn1c(COCC)nc2c(N)nc3cc(OC4CCN(S(C)(=O)=O)CC4)ccc3c21 . 215 to 217 °C

What melting point value was documented for this compound, CCCn1c(COC)nc2c(N)nc3ccc(OCCCOC(=O)N4CCOCC4)cc3c21 ? 173 to 174 °C

Look up melting point: CCOCc1nc2c(N)nc3cc(OCCCCCCNC(C)=O)ccc3c2n1CC(C)(C)NC(=O)NC(C)C 90 to 110 °C

Reference source: patent US9856254B2
